measurement_description: viability loss of HPDE-C7K cells – cell-based, fluorescence, HTS, primary screen (AID 431);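 note: 0% = DMSO solvent wells and 100% = doxorubicin-treated wells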
condition_details: HPDE-C7K KRASV12 cells, Alamar Blue viability, 48 h; at 10 µM; hits give high values
Hit rate of the full screen: of about 63,000 compounds, about 1,100 (1.7%) were called active. The entries come from a sample that favours actives as a whole. Measured potencies and affinities stand elsewhere.
As shown below, each of these molecules has a reported cytotoxicity value.
readout_name: cytotoxicity (%)

>>> readout_value("CN(C)S(=O)(=O)c1ccc(S(=O)(=O)Nc2ccc3c(c2)oc2ccccc23)cc1")
-0.2
>>> readout_value("Fc1ccc(CN2CCCCCCC2)c(F)c1")
4.9
>>> readout_value("Cn1c(-c2ccccc2)cnc1SCC(=O)NCc1ccco1")
-16.1
>>> readout_value("Cc1ccccc1-c1nn2c(-c3ccccc3)nnc2s1")
11.2
>>> readout_value("Cc1nnc2sc(-c3csc4c3CCCC4)nn12")
3.5
>>> readout_value("c1ccc(-c2nnc3sc(-c4csc5c4CCCC5)nn23)cc1")
71.6

* * *

measurement_description: viability loss of HPDE-C7K cells – cell-based, fluorescence, HTS, primary screen (AID 431);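 note: 0% = DMSO solvent wells and 100% = doxorubicin-treated wells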
condition_details: HPDE-C7K KRASV12 cells, Alamar Blue viability, 48 h; at 10 µM; hits give high values
In all, about 63,000 compounds went through this assay and about 1,100 (1.7%) were called active. The sample holds actives, similar compounds and a random draw of the others, so the mix is not that of the screen. Results with a measured potency or affinity are listed apart.
Form field: cytotoxicity (one value per entry).
readout_name: cytotoxicity (%)

>>> readout_value("CSc1ccc2[nH]c(=O)cc(C)c2c1")
-15.6
>>> readout_value("CCc1ccc(Cn2nnc(C(=O)Nc3cccc(C)c3)c2N)cc1")
-0.7
>>> readout_value("Cc1cc(C(=O)CSc2nnc(NCc3ccccc3)s2)c(C)n1C")
65.2
>>> readout_value("COc1ccc(C2CCCN2C(=O)Nc2ccc(F)cc2)cc1OC (centres undefined)")
-15.2
>>> readout_value("CCOC(=O)C1CCCN(c2nc3ccccc3nc2C(C#N)C(=O)OC(C)COC)C1 (centres undefined)")
31.8
>>> readout_value("Cc1cc2n(n1)C(c1ccccc1Cl)Nc1ccccc1-2 (centres undefined)")
18.6
>>> readout_value("CCOC(=O)C1CCN(Cc2ccccc2C(F)(F)F)CC1")
-13.3
>>> readout_value("COc1ccc(S(=O)(=O)N(CC(=O)N2CCN(C)CC2)C2CCCCC2)cc1OC")
0.2
>>> readout_value("CC(CC(=O)O)CC1=NS(=O)(=O)c2ccccc2N1 (centres undefined)")
-8.6
>>> readout_value("Nc1ncn(C(=O)c2ccco2)n1")
4.4
>>> readout_value("O=C(CSc1nc2ccccc2s1)NC(=O)NCc1ccco1")
87.6
>>> readout_value("CCOc1ccc(C(=O)N2CCN(c3ccccc3)CC2)cc1OCC")
-18
>>> readout_value("COc1ccc2nc3oc(C(=O)N4CCN(c5cccc(Cl)c5)CC4)cc3cc2c1")
25.9
>>> readout_value("COc1ccc(N2CCN(C(=O)CN3C(=O)C4CC=CCC4C3=O)CC2)cc1 (centres undefined)")
0.2
>>> readout_value("CCOC(=O)C1CCN(c2nc3ccccc3nc2C(C#N)C(=O)OC(C)COC)CC1 (centres undefined)")
6.6
>>> readout_value("O=C(CN1CCN(c2ccccc2)CC1)Nc1cccc(C(F)(F)F)c1")
4.9
>>> readout_value("CCC(C)C(NC(=O)c1ccccc1NC(=O)c1ccco1)C(=O)O (centres undefined)")
1.4
>>> readout_value("O=C(CSc1nnc(NCc2ccccc2)s1)c1ccco1")
-6.2
>>> readout_value("COC(=O)c1[nH]c2ccccc2c1NC(=O)CN1CCN(c2cccc(Cl)c2)CC1")
7.8
>>> readout_value("C=CCn1c(SCC(=O)NC(=O)NCc2ccco2)nc2sc(CC)cc2c1=O")
63.4
>>> readout_value("CCOc1ccccc1C(=O)N1CCN(c2cccc(Cl)c2)CC1")
65.8
>>> readout_value("COc1ccccc1C(=O)N1CCN(c2cccc(Cl)c2)CC1")
31.3
>>> readout_value("CCC(c1nnnn1C1CCCC1)N(Cc1cccs1)Cc1cc2cc(C)ccc2[nH]c1=O (centres undefined)")
68.3
>>> readout_value("Cc1cc(C(=O)CSc2nnc(-c3ccccc3)n2C)c(C)n1C")
16.6
>>> readout_value("Cc1onc(-c2c(F)cccc2Cl)c1C(=O)OCC(=O)NCc1ccco1")
0.8
>>> readout_value("O=C(CSc1nc2cc(Cl)ccc2s1)NC(=O)NCc1ccco1")
-8.3
>>> readout_value("COc1ccc2cc(CN(Cc3ccco3)C(c3nnnn3C3CCCCC3)C(C)C)c(=O)[nH]c2c1 (centres undefined)")
1.3
>>> readout_value("Cc1c(C(=O)NCc2ccoc2)oc2ccc3c(c12)C(=O)CC(C)(C)O3")
36.4
>>> readout_value("CC(CN1CCCCC1)OC(=O)c1cc2ccccc2o1 (centres undefined)")
-6.7
>>> readout_value("NC(=O)CN1C(=O)C(O)(CC(=O)c2ccccc2O)c2ccccc21 (centres undefined)")
-20.7
>>> readout_value("O=C(CCCSc1nc2ccccc2s1)NCc1ccco1")
5.8
>>> readout_value("C=CCn1c(C)cc(C(=O)CSc2nnc(Cc3ccccc3)o2)c1C")
-7.3
>>> readout_value("CCOC(=O)C1CCCN(c2nc3ccccc3nc2C(C#N)C(=O)OCCOC)C1 (centres undefined)")
53.1
>>> readout_value("Cc1onc(-c2ccccc2)c1C(=O)NCc1ccco1")
9
>>> readout_value("O=C(c1ccco1)N1CCN(c2ncnc3c2[nH]c2ccc(Br)cc23)CC1")
10
>>> readout_value("C=C1[C@@H](C)C2[C@H](Cc3ccccc3)NC(=O)[C@]23OC(=O)CC[C@H](O)CCC[C@H](C)C/C=C/[C@H]3[C@@H]1O (some centres undefined)")
59.8
>>> readout_value("Cc1ccc(NC(=O)CCNS(=O)(=O)c2ccc3c(c2)oc(=O)n3C)cc1")
-10.2
>>> readout_value("COc1cccc(C(=O)N(CN2CCCC2=O)c2cccc(Cl)c2)c1")
-17.4
>>> readout_value("C=CCn1c(SCC(=O)N2CCN(C(=O)c3ccco3)CC2)nc2sc(CC)cc2c1=O")
-11.5
>>> readout_value("Cc1sc2nc(SCC(=O)c3cccs3)n(Cc3ccco3)c(=O)c2c1C")
31.6
>>> readout_value("COc1ccc(CN(CCCN2CCOCC2)C(=O)Nc2ccccc2)cc1OC")
13.2
>>> readout_value("Cc1ccc2occ(CN3CCN(c4ccccc4)CC3)c(=O)c2c1")
-18.2
>>> readout_value("Cc1c(NC(=O)OCCSc2nc(N(C)C)nc(N(C)C)n2)sc(=S)n1C")
66
>>> readout_value("COC(=O)C1=C(C)NC(=O)C1(NC(=O)CN1CCCC1=O)C(F)(F)F (centres undefined)")
13.1

* * *

measurement_description: viability loss of HPDE-C7K cells – cell-based, fluorescence, HTS, primary screen (AID 431);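 note: 0% = DMSO solvent wells and 100% = doxorubicin-treated wells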
condition_details: HPDE-C7K KRASV12 cells, Alamar Blue viability, 48 h; at 10 µM; hits give high values
In all, about 63,000 compounds went through this assay and about 1,100 (1.7%) were called active. The entries come from a sample that favours actives as a whole. Results with a measured potency or affinity are listed apart.
readout_name: cytotoxicity (%)

>>> readout_value("Clc1ccc(Cc2noc(Cc3ccccc3)n2)cc1Cl")
-5
>>> readout_value("CCCCOC(=O)c1ccc(NC(=O)c2cnccn2)cc1")
10.3
>>> readout_value("Cc1cc(C)c2c(c1)cc(C)c1nnc(SCC(=O)Nc3cc(C)on3)n12")
22.6
>>> readout_value("CCOC(=O)c1ccc(N=c2sc(C(=O)OC)cc(=O)n2C2CC2)cc1")
14.1
>>> readout_value("Cc1noc(C)c1COC(=O)C1CC(O)CN1S(=O)(=O)c1ccc(Cl)cc1 (stereo unspecified)")
-5.6
>>> readout_value("O=C(c1cccs1)N1CCC(c2nc3c(nnn3Cc3ccccc3)c(=O)[nH]2)CC1")
-36
>>> readout_value("CCOC(=O)COc1ccc2nsnc2c1Cl")
2.6
>>> readout_value("O=C(NCc1ccoc1)c1ccc(NC(=O)c2ccccc2Cl)cc1")
-12.8
>>> readout_value("C=CCN1C(=O)C2C(C(=O)NC)C3C=CC2(O3)C1C(=O)NCc1ccc(OC)cc1 (stereo unspecified)")
4.1
>>> readout_value("CCC1CCCCN1C(=O)CSc1nc(N)c(NC(=O)c2ccco2)c(=O)[nH]1 (stereo unspecified)")
-21.6
>>> readout_value("COCc1[nH]nc2c1C(c1ccc(F)cc1F)C(C#N)=C(N)O2 (stereo unspecified)")
-13.5

* * *

measurement_description: viability loss of HPDE-C7K cells – cell-based, fluorescence, HTS, primary screen (AID 431);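 note: 0% = DMSO solvent wells and 100% = doxorubicin-treated wells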
condition_details: HPDE-C7K KRASV12 cells, Alamar Blue viability, 48 h; at 10 µM; hits give high values
Out of some 63,000 compounds screened, about 1,100 (1.7%) were called active. Only a selection was taken, and actives are over-represented in it overall. Entries with a potency or affinity are not part of this list.
readout_name: cytotoxicity (%)

>>> readout_value("O=S(=O)(Cc1ccccc1)NCc1ccccn1")
1.9
>>> readout_value("CCCCn1c(-c2cc(Cl)ccc2OC)n[nH]c1=S")
-11.5
>>> readout_value("CCOC(=O)C1CCN(c2ncnc3c2oc2ccc(Cl)cc23)CC1")
6.4
>>> readout_value("CC1Cc2cc(-c3csc(NC(=O)Cc4cccs4)n3)ccc2N1S(C)(=O)=O (stereo unspecified)")
61.4
>>> readout_value("CCOc1ccccc1NC(=O)N1C2CCCC1CC(NC(=O)C1CC1)C2 (stereo unspecified)")
-3.2
>>> readout_value("CCOC(=O)N1CCN(C(=O)COc2ccc(S(=O)(=O)NC3CCCCC3)cc2C)CC1")
-6.6
>>> readout_value("COc1ccc(OCc2nn3c(-c4ccccn4)nnc3s2)cc1")
4
>>> readout_value("Cc1ccccc1NC(=O)N1C2CCCC1CC(NC(=O)C(C)(C)C)C2 (stereo unspecified)")
-3.9
>>> readout_value("CC(C)C[C@H](NC(=O)NCc1ccc(Cl)cc1)C(=O)O")
5.3
>>> readout_value("CCOc1ccccc1OCC(=O)O")
6.8
>>> readout_value("Fc1ccc(-c2nnc(SCc3ncc(-c4ccccc4)o3)n2CC2CCCO2)cc1 (stereo unspecified)")
-17.5
